Values from ChEMBL document CHEMBL3351892

Measurement Target: Neuropilin-1 (Homo sapiens)
Protocol: Inhibition of biotinylated VEGFA165 binding to NRP1 (unknown origin) at 10 uM by chemiluminescent assay
Property Name: inhibition (%)

a: Cc1ccc(-c2nc3ccccc3[nH]2)cc1NC(=S)NC(=O)c1ccc2c(c1)OCCO2
b: O=C(NC(=S)Nc1cccc(-c2nc3ccccc3s2)c1)c1ccc2c(c1)OCO2
Task for the reader: decide whether a or b has the larger inhibition. Give the label of your selection.
a
(a: 34%, b: 14%)

A: N#Cc1ccc2[nH]c(-c3cccc(NC(=S)NC(=O)c4ccc5c(c4)OCCO5)c3)nc2c1
B: O=C(NC(=S)Nc1cccc(-c2nc3ccccc3[nH]2)c1)c1ccc2c(c1)OCO2
Task for the reader: decide whether A or B has the larger inhibition. Give the label of your selection.
B
(B: 46%, A: 0%)

* * *

Tested on: HUVEC
Protocol: Inhibition of cell proliferation of HUVEC after 72 hrs by crystal violet adhesion based colorimetric assay
Format: functional
Particulars: Homo sapiens
Property Name: IC50 (µM)
Hi! Could you send only the number? It should be in µM, unit omitted.

Look over these answered cases.
- Smiles Repr: "COc1ccc(C(=O)NC(=S)Nc2cccc(-c3nc4ccccc4[nH]3)c2)cc1OC"
  Result Unit: "µM"
  Recorded Measurement: 5
- Smiles Repr: "COc1ccc(C(=O)NC(=O)Nc2cccc(-c3nc4ccccc4[nH]3)c2)cc1OC"
  Result Unit: "µM"
  Recorded Measurement: 8
- Smiles Repr: "O=C(NC(=S)Nc1cccc(-c2nc3ccccc3s2)c1)c1ccc2c(c1)OCCO2"
  Result Unit: "µM"
  Recorded Measurement: 2.6
- Smiles Repr: "O=C(NC(=S)Nc1cccc(-c2nc3ccccc3s2)c1)c1ccc2c(c1)OCO2"
  Result Unit: "µM"
  Recorded Measurement: 0.9

API: the following record is the query input.
Value of IC50 reported for the molecule N#Cc1ccc2[nH]c(-c3cccc(NC(=S)NC(=O)c4ccc5c(c4)OCO5)c3)nc2c1 is 6

* * *

System: HUVEC
Protocol: Inhibition of cell proliferation of HUVEC after 72 hrs by crystal violet adhesion based colorimetric assay
Assay type: functional
Particulars: Homo sapiens
List of IC50 values.
Hi! Could you send only the number? It should be in µM, unit omitted.

- Smiles Repr: "Cc1ccc(-c2nc3ccccc3[nH]2)cc1NC(=S)NC(=O)c1ccc2c(c1)OCCO2"
  Recorded Measurement: 0.15
- Smiles Repr: "Cc1ccc(-c2nc3ccccc3s2)cc1NC(=S)NC(=O)c1ccc2c(c1)OCO2"
  Recorded Measurement: 5
- Smiles Repr: "Cc1ccc(-c2nc3ccccc3[nH]2)cc1NC(=S)NC(=O)c1ccc2c(c1)OCO2"
  Recorded Measurement: 0.75

Value of IC50 reported for the molecule CCOc1ccc(C(=O)NC(=S)Nc2cc(-c3nc4ccccc4[nH]3)ccc2C)cc1OCC is 6

Value of IC50 reported for the molecule O=C(NC(=S)Nc1cccc(-c2nc3ccccc3[nH]2)c1)c1ccc2c(c1)OCO2 is 0.3

Value of IC50 reported for the molecule CCOc1ccc(C(=O)NC(=S)Nc2cccc(-c3nc4ccccc4[nH]3)c2)cc1OCC is 8

* * *

List of IC50 values.
Tested on: MDA-MB-231
Protocol: Cytotoxicity against human MDA-MB-231 after 48 hrs by WST1 assay
Format: functional, cell-based
Particulars: MDA-MB-231, 48 h

Look over these answered cases.
- Smiles Repr: "O=C(NC(=S)Nc1cccc(-c2nc3ccccc3[nH]2)c1)c1ccc2c(c1)OCO2"
  Recorded Measurement: "6 µM"
- Smiles Repr: "O=C(NC(=S)Nc1cccc(-c2nc3ccccc3[nH]2)c1)c1ccccc1"
  Recorded Measurement: "> 10 µM"
- Smiles Repr: "O=C(NC(=S)Nc1cccc(-c2nc3ccccc3s2)c1)c1ccc2c(c1)OCO2"
  Recorded Measurement: "10 µM"
- Smiles Repr: "N#Cc1ccc2[nH]c(-c3cccc(NC(=S)NC(=O)c4ccc5c(c4)OCCO5)c3)nc2c1"
  Recorded Measurement: "> 10 µM"
- Smiles Repr: "Cc1ccc(-c2nc3ccccc3s2)cc1NC(=S)NC(=O)c1ccc2c(c1)OCO2"
  Recorded Measurement: "> 10 µM"

Value of IC50 reported for the compound Cc1ccc(-c2nc3ccccc3[nH]2)cc1NC(=S)NC(=O)c1ccccc1 is > 10 µM

Value of IC50 reported for the compound Cc1ccc(-c2nc3ccccc3[nH]2)cc1NC(=S)NC(=O)c1ccc2c(c1)OCCO2 is 0.53 µM

* * *

Measurement Target: Neuropilin-1 (Homo sapiens) (UniProt O14786)
Sequence (O14786 whole entry): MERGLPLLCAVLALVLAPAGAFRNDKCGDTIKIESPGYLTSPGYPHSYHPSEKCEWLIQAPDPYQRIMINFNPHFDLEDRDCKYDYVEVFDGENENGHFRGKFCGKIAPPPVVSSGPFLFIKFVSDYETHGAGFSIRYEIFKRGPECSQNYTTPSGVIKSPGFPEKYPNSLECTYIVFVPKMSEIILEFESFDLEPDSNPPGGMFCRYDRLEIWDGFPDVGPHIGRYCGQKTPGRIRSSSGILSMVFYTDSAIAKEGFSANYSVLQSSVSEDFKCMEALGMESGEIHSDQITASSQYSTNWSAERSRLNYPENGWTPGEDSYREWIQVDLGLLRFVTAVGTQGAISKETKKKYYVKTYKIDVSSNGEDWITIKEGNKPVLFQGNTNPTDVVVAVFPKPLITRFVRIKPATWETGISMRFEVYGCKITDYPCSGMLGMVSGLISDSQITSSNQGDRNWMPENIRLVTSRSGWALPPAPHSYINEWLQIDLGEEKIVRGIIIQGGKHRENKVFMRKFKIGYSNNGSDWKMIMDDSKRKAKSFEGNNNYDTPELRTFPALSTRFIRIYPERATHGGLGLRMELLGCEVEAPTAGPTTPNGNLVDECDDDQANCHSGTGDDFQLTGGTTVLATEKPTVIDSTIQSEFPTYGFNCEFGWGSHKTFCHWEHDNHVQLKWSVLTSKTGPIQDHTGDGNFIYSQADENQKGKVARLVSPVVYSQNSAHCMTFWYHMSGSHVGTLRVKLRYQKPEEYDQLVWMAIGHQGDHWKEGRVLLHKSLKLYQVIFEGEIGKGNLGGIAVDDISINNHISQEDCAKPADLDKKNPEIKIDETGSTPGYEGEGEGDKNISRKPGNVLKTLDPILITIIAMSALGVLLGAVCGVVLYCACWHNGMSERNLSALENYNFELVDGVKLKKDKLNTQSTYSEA
Protocol: Inhibition of biotinylated VEGFA165 binding to NRP1 (unknown origin) at 10 uM by chemiluminescent assay
Property Name: inhibition (%)

Look over these answered cases.
- Smiles Repr: "CCOc1ccc(C(=O)NC(=S)Nc2cc(-c3nc4ccccc4[nH]3)ccc2C)cc1OCC"
  inhibition, %: 32
- Smiles Repr: "O=C(NC(=S)Nc1cccc(-c2nc3ccccc3[nH]2)c1)c1ccc2c(c1)OCCO2"
  inhibition, %: 38

A: CCOc1ccc(C(=O)NC(=S)Nc2cccc(-c3nc4ccccc4[nH]3)c2)cc1OCC
B: N#Cc1ccc2[nH]c(-c3cccc(NC(=S)NC(=O)c4ccc5c(c4)OCO5)c3)nc2c1
Which gives the smaller inhibition number: A or B ? Give the label of your selection.
A

* * *

System: HUVEC
Protocol: Inhibition of cell proliferation of HUVEC after 72 hrs by crystal violet adhesion based colorimetric assay
Assay type: functional
Particulars: Homo sapiens
Property Name: IC50

Look over these answered cases.
- Smiles Repr: "Cc1ccc(-c2nc3cc(F)ccc3[nH]2)cc1NC(=S)NC(=O)c1ccc2c(c1)OCO2"
  IC50: "> 10 µM"
- Smiles Repr: "O=C(NC(=S)Nc1cccc(-c2nc3ccccc3[nH]2)c1)c1ccc2c(c1)OCCO2"
  IC50: "< 0.1 µM"
- Smiles Repr: "Cc1ccc(-c2nc3ccccc3[nH]2)cc1NC(=S)NC(=O)c1ccccc1"
  IC50: "> 10 µM"

API: the following record is the query input.
// assay HUVEC, entry S=C(NCc1ccc2c(c1)OCO2)Nc1cccc(-c2nc3ccccc3[nH]2)c1 , IC50 value = > 10 µM

* * *

List of IC50 values.
Tested on: MDA-MB-231
Protocol: Cytotoxicity against human MDA-MB-231 after 48 hrs by WST1 assay
Type: functional, cell-based
Particulars: MDA-MB-231, 48 h

Look over these answered cases.
- Smiles Repr: "S=C(NCc1ccc2c(c1)OCO2)Nc1cccc(-c2nc3ccccc3[nH]2)c1"
  Measurement Target: "MDA-MB-231"
  IC50: "> 10 µM"
- Smiles Repr: "O=C(NC(=S)Nc1cccc(-c2nc3ccccc3s2)c1)c1ccc2c(c1)OCCO2"
  Measurement Target: "MDA-MB-231"
  IC50: "> 10 µM"
- Smiles Repr: "Cc1ccc(-c2nc3ccccc3[nH]2)cc1NC(=S)NC(=O)c1ccc2c(c1)OCO2"
  Measurement Target: "MDA-MB-231"
  IC50: "6 µM"

Value of IC50 reported for the compound COc1ccc(C(=O)NC(=S)Nc2cccc(-c3nc4ccccc4[nH]3)c2)cc1OC is > 10 µM

Value of IC50 reported for the compound O=C(NC(=S)Nc1cccc(-c2nc3ccccc3[nH]2)c1)c1ccc2c(c1)OCCO2 is 0.4 µM

Value of IC50 reported for the compound Cc1ccc(-c2nc3ccccc3[nH]2)cc1NC(=S)NCc1ccc2c(c1)OCO2 is > 10 µM
